Test system: T-47D breast ductal carcinoma
assay-summary: Relative colony forming efficiency after antisense treatment (Table 13)
Format: cell-based, human
assay-context: 0.2 μM antisense oligodeoxyribonucleotide phosphorothioate; T-47D cells; averages of 2-8 determinations
Strand notation (5' to 3'): a small letter for the sugar, then the base; units joined by * are phosphorothioate-linked, units joined directly phosphodiester-linked; [ ] holds rarer units or linkages, { } end groups; capitals alone tell only the bases. d = 2'-deoxy (DNA)
result-type: Reduced relative colony forming efficiency, expressed as % inhibition, T-47D (%)

> print(dat)
                                   substance  quantitative.result
 1  GGCTAAATCGCTCCACCAAG (dG*dG*dC*dT*dA*dA*dA*dT*dC*dG*dC*dT*dC*dC*dA*dC*dC*dA*dA*dG) [AS-II-626-20]                66.12
 2  GTAAGTCACAGCCAGCCAGG (DNA, all phosphorothioate, methylation of C not given here) [AS-II-1560-20]                 86.6
 3  CGGAGGGAGAGCATAGTGGA (dC*dG*dG*dA*dG*dG*dG*dA*dG*dA*dG*dC*dA*dT*dA*dG*dT*dG*dG*dA; antisense) [AS-II-189-20]                96.63
 4  GACACAAGGCATCGTTTCAA (antisense; DNA, all phosphorothioate, methylation of C not given here) [AS-II-784-20]                85.39
 5  GsCCsTCCGsACCsCTTCsCCsATTsG (antisense dG*dCdC*dTdCdCdG*dAdCdC*dCdTdTdC*dCdC*dAdTdT*dG) [AS-II-13-20]                15.33
 6  TCCTCGGCGGTCCAAA (dT*dC*dC*dT*dC*dG*dG*dC*dG*dG*dT*dC*dC*dA*dA*dA) [AS-II-496-16]                10.79
 7  AAAAATCAGCCAAGTAAGGG (DNA, all phosphorothioate, methylation of C not given here) [AS-II-1381-20]                93.62
 8  CGCGCTCCCGGCCC (dC*dG*dC*dG*dC*dT*dC*dC*dC*dG*dG*dC*dC*dC) [AS-II-79-14]                70.81
 9  AGGACTGGTTGTGAGGTAGC (DNA, all phosphorothioate, methylation of C not given here) [AS-II-1499-20]                96.67
10  CTCTCTCCTCCGATGGTTTG (DNA, all phosphorothioate, methylation of C not given here) [AS-II-1040-20]                64.76
11  TGCCTCCGACCCTTCCCA (antisense dT*dG*dC*dC*dT*dC*dC*dG*dA*dC*dC*dC*dT*dT*dC*dC*dC*dA) [AS-II-16-18]                 7.13
12  GCACGGGCGACC (antisense dG*dC*dA*dC*dG*dG*dG*dC*dG*dA*dC*dC) [AS-II-127-12]                37.54
13  CCTGTCTTCTATCTGGCACC (antisense; DNA, all phosphorothioate, methylation of C not given here) [AS-II-1989-20]                90.83

Numbers sourced from patent US7405205B2.
